Entry source: patent US6472348B1

Test system: barnyardgrass (Ec)
protocolSummary: Test Example 2: herbicidal effects by upland field soil treatment;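 note: grade of growth control; 5 = at least 90%; 4 = 70 to 90%; 3 = 50 to 70%; 2 = 30 to 50%; 1 = 10 to 30%; 0 = under 10%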
Format: in vivo
conditionLabel: 100 g of the active ingredient per 10 ares, evaluated on the 21st day after application
recordedEndpoint: Herbicidal effects Ec

INSERT INTO measurements (givensmiles, recordedvalue) VALUES
  ('CNC(=O)COc1cc(-c2ccc(C(F)(F)F)n(C)c2=O)c(F)cc1Cl', 4),
  ('COc1cc(Cl)cc(F)c1-c1ccc(C(F)(F)F)n(C)c1=O', 5),
  ('C#CCN1C(=O)CSc2cc(F)c(-c3ccc(C(F)(F)F)n(C)c3=O)cc21', 5);

---

Test system: wheat (Tr)
protocolSummary: Test Example 9: crop plant selectivity by upland field foliage treatment (wheat), phytotoxicity;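 note: grade of crop injury; 5 = at least 90%; 4 = 70 to 90%; 3 = 50 to 70%; 2 = 30 to 50%; 1 = 10 to 30%; 0 = under 10%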
conditionLabel: dose 1.6 g ai/10a, 14th day after treatment
recordedEndpoint: Phytotoxicity Tr

INSERT INTO results (compound, recordedvalue) VALUES
  ('CCOC(=O)C(CC)Sc1cc(-c2ccc(C(F)(F)F)n(C)c2=O)c(Cl)cc1Cl (racemic) [1-125]', 2),
  ('CCN1C(=O)COc2cc(F)c(-c3ccc(C(F)(F)F)n(C)c3=O)cc21 [Compound 2-15]', 2),
  ('CCC(=O)c1cc(-c2ccc(C(F)(F)F)n(C)c2=O)c(F)cc1Cl [1-69]', 1),
  ('CCCc1cc2c(-c3ccc(C(F)(F)F)n(C)c3=O)c(F)cc(Cl)c2o1 [Compound 4-3]', 2);

---

Tested on: Diaitaria ciliaris (Di)
protocolSummary: Test Example 3: herbicidal effects by upland field foliage treatment
Assay type: in vivo
Design: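 grade of growth control; 5 = at least 90%; 4 = 70 to 90%; 3 = 50 to 70%; 2 = 30 to 50%; 1 = 10 to 30%; 0 = under 10%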
conditionLabel: 100 g active ingredient per 10 ares, evaluated 14th day after treatment
recordedEndpoint: Herbicidal effects Di

INSERT INTO results (molecule, recordedvalue) VALUES
  ('CCCON=Cc1cc(-c2ccc(C(F)(F)F)n(C)c2=O)c(F)cc1Cl [Compound 1-188]', 5),
  ('Cn1c(C(F)(F)F)ccc(-c2cc3c(cc2F)OCC(=O)N3CC=CCl)c1=O [Compound 2-14]', 5),
  ('C#CCOCc1cc(-c2ccc(C(F)(F)F)n(C)c2=O)c(F)cc1Cl [Compound No. 1-199]', 5),
  ('CCON=Cc1cc(-c2ccc(C(F)(F)F)n(C)c2=O)c(F)cc1Cl [Compound 1-187]', 5),
  ('Cc1cc2c(-c3ccc(C(F)(F)F)n(C)c3=O)ccc(Cl)c2o1 [Compound 4-24]', 5),
  ('CC(C)Oc1cc(-c2cn(C)c(C(F)(F)F)cc2=O)c(F)cc1Cl [Compound No. 6-7]', 5),
  ('Cn1c(C(F)(F)F)ccc(-c2cc3c(cc2F)OCC(=O)N3CC#N)c1=O [Compound 2-17]', 5),
  ('CN1C(=O)COc2cc(F)c(-c3ccc(C(F)(F)F)n(C)c3=O)cc21 [Compound 2-16]', 5),
  ('Cn1c(C(F)(F)F)ccc(-c2cc3c(cc2F)sc(=O)n3C)c1=O [Compound 3-6]', 5),
  ('C#CCNC(=O)COc1cc(-c2ccc(C(F)(F)F)n(C)c2=O)c(F)cc1Cl [Compound 1-210]', 5),
  ('Cn1c(C(F)(F)F)ccc(-c2c(F)cc(Cl)c3oc(CO)cc23)c1=O [Compound No. 4-5]', 5),
  ('C=CCn1c(=O)sc2cc(F)c(-c3ccc(C(F)(F)F)n(C)c3=O)cc21 [Compound 3-5]', 5);
